# credit: patent US20210196796A1

tgt: T1, orthogonal hCD122 receptor (hoRb), hCD122 with H133D and Y134F (human, UniProt P14784 27-550)
T1 sequence: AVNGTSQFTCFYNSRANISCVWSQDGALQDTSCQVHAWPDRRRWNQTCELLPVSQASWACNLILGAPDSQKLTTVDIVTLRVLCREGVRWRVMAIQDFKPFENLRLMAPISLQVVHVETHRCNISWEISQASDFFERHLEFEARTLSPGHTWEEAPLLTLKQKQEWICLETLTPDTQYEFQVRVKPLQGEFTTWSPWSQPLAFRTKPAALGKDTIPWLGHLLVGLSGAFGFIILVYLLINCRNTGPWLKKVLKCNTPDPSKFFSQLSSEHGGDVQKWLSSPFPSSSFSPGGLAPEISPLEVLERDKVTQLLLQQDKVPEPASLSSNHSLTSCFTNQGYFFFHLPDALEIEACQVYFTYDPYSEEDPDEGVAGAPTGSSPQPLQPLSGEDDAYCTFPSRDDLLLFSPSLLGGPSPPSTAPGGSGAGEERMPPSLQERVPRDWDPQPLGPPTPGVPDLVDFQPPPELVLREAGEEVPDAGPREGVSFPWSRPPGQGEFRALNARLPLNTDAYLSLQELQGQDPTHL
assay protocol: cell-based or functional assay; also: reference of the scale not given here
result type: Relative Proliferation Fold Change NKL 1:2 (fold)

Recorded Relative Proliferation Fold Change NKL 1:2, per entry:
INSERT INTO results (binder, measured_value) VALUES
  ('TQVLKA (ligand) APTSSSTKKTQLQLTQLLVLLKAILNGINNYKNPKLTRMLTFKFYMPKKATELKHLQCLEEELKPLEEVLNLAQSKNFHLRPRDLISNINVIVLELKGSETTFMCEYADETATIVEFLNRWITFCQSIISTLT', 3.46),
  ('ΔT3, SQVLKA (ligand) APSSSTKKTQLQLSQLLVLLKAILNGINNYKNPKLTRMLTFKFYMPKKATELKHLQCLEEELKPLEEVLNLAQSKNFHLRPRDLISNINVIVLELKGSETTFMCEYADETATIVEFLNRWITFCQSIISTLT', 4);

(P) SQVLEA (ligand) APTSSSTKKTQLQLSQLLVLLEAILNGINNYKNPKLTRMLTFKFYMPKKATELKHLQCLEEELKPLEEVLNLAQSKNFHLRPRDLISNINVIVLELKGSETTFMCEYADETATIVEFLNRWITFCQSIISTLT
(Q) T3D, SQVLKA (ligand) APDSSSTKKTQLQLSQLLVLLKAILNGINNYKNPKLTRMLTFKFYMPKKATELKHLQCLEEELKPLEEVLNLAQSKNFHLRPRDLISNINVIVLELKGSETTFMCEYADETATIVEFLNRWITFCQSIISTLT
(R) L18G, SQVLKA (ligand) APTSSSTKKTQLQLSQLGVLLKAILNGINNYKNPKLTRMLTFKFYMPKKATELKHLQCLEEELKPLEEVLNLAQSKNFHLRPRDLISNINVIVLELKGSETTFMCEYADETATIVEFLNRWITFCQSIISTLT
(S) L18D, SQVLKA (ligand) APTSSSTKKTQLQLSQLDVLLKAILNGINNYKNPKLTRMLTFKFYMPKKATELKHLQCLEEELKPLEEVLNLAQSKNFHLRPRDLISNINVIVLELKGSETTFMCEYADETATIVEFLNRWITFCQSIISTLT
Hello, I need these entries ordered by Relative Proliferation Fold Change NKL 1:2, highest reading first. Thanks! Output spec: labels arranged per the requested ranking.
Q, P, R, S
(Q: 4.09 fold, P: 1.78 fold, R: 1.05 fold, S: 0.6 fold)
